# System: C. elegans
# assayExplanation: microbe, parasite or virus in culture
# assayConditions: Caenorhabditis elegans, 0 h, read-out: Percentage of motility inhibition 0 h, Table S2, C. elegans SS assay, 110 μM, 0 h, averages of 4 data points
We'd kindly ask you to apply these inhibition at 110 µM classes: lower bin (below 9%), middle bin (9% to below 30%), upper bin (30% or more)

Some solved cases for reference:
compound=CO[C@H]1/C=C/O[C@@]2(C)Oc3c(C)c(O)c4c(O)c(c5c(nc6cc(C)ccn65)c4c3C2=O)NC(=O)/C(C)=C\C=C\[C@H](C)[C@H](O)[C@@H](C)[C@@H](O)[C@@H](C)[C@H](OC(C)=O)[C@@H]1C cat="lower bin"
compound=CC1(C)C[C@H]2C3=CC[C@@H]4[C@@]5(C)CC[C@H](O)[C@](C)(CO)[C@@H]5CC[C@@]4(C)[C@]3(C)CC[C@@]2(C)[C@H](O)[C@@H]1O cat="lower bin"
compound=Cn1c(N2CCCCS2(=O)=O)nc(C(=O)NCc2ccc(F)cc2)c(O)c1=O cat="lower bin"

Hey, which category is "C[C@@H]1C/C=C/C=C/C=C/C=C/[C@H](O[C@@H]2O[C@H](C)[C@@H](O)[C@H](N)[C@@H]2O)C[C@@H]2O[C@](O)(C[C@@H](O)C[C@H]3O[C@@H]3/C=C/C(=O)O1)C[C@H](O)[C@H]2C(=O)O" in, do you know? middle bin

Hey, which category is "N#C/C(=C1/SC[C@@H](c2ccc(Cl)cc2Cl)S1)n1ccnc1" in, do you know? lower bin

Hey, which category is "CC(C)CNC(=O)/C=C/C=C/c1ccc2c(c1)OCO2" in, do you know? upper bin

Hey, which category is "O=C1C[C@@H](c2ccc(O[C@@H]3O[C@H](CO)[C@@H](O)[C@H](O)[C@H]3O)cc2)Oc2cc(O)ccc21" in, do you know? upper bin

Hey, which category is "COc1ccc(-c2oc3cc(O)cc(O)c3c(=O)c2O)cc1O" in, do you know? middle bin

Hey, which category is "C=C1[C@@H](O)[C@]2(O)OC[C@]34[C@H]2[C@@]2(C)[C@H](O)C(=O)C=C(C)[C@@H]2C[C@H]3OC(=O)[C@H](O)[C@@]14O" in, do you know? lower bin

Hey, which category is C=CC1(C)Cc2occ(C)c2C(=O)C1C(=C)C (stereo not shown) in, do you know? middle bin

Hey, which category is "NC(=O)N/N=C/c1ccc([N+](=O)[O-])o1" in, do you know? middle bin

Hey, which category is "Oc1c(Cl)cc(Cl)cc1Sc1cc(Cl)cc(Cl)c1O" in, do you know? upper bin

Hey, which category is "C=C1CC/C=C(\C)CC[C@@H]2[C@@H]1CC2(C)C" in, do you know? middle bin

Hey, which category is "CN(C/C=C/C#CC(C)(C)C)Cc1cccc2ccccc12" in, do you know? upper bin
